SYSTEM: SMARCA4 (Homo sapiens)
Sequence (P51532 whole entry): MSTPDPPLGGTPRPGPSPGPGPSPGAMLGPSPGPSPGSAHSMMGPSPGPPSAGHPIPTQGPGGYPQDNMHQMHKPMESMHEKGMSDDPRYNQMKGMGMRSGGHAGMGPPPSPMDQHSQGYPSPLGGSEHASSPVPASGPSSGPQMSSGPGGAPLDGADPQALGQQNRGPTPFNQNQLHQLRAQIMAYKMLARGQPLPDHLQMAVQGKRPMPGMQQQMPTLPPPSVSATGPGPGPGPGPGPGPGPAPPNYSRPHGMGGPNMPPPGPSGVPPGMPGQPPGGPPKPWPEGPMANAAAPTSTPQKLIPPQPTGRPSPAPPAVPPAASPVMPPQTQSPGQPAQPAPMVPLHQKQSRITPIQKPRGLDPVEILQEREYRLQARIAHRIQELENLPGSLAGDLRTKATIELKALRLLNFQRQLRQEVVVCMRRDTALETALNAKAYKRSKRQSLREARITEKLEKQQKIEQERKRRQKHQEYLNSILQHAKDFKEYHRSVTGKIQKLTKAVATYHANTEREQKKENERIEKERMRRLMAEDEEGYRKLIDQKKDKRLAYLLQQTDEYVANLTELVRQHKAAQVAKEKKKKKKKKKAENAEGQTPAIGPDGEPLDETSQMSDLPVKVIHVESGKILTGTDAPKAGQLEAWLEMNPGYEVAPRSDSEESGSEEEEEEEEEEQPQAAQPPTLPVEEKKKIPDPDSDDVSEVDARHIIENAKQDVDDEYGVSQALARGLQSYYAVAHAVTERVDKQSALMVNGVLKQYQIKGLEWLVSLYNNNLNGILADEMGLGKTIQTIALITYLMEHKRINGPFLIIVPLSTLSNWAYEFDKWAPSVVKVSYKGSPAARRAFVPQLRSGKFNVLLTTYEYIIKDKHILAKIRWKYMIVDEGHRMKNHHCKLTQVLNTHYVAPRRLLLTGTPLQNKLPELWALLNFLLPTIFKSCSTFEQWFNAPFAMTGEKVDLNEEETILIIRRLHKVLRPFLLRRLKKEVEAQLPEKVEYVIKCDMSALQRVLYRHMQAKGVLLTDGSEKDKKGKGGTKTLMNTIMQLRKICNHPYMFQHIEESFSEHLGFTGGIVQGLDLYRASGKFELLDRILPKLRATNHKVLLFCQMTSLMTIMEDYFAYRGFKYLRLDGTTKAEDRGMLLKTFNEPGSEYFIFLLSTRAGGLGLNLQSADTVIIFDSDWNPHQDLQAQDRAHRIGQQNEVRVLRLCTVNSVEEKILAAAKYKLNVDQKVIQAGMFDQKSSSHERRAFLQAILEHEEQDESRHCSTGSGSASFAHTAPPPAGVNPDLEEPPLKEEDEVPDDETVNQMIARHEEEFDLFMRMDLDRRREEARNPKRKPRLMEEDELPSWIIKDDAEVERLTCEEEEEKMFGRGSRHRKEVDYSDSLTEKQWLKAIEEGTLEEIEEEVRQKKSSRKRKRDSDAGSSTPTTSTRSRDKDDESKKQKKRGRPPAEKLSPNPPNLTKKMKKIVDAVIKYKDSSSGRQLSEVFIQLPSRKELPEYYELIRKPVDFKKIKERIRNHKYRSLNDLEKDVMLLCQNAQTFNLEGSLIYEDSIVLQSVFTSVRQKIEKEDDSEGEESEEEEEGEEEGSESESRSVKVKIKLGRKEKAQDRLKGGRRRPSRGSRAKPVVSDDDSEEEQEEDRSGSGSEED
ASSAY: SMARCA4 capillary electrophoresis protein assay in RKO cells
Format: cell-based
Design: endogenous in cells; host or cells: RKO, HCT116, LU99, HCC-364, HCT-15, HCC4006, SK-N-AS
MEASUREMENT_SETUP: RKO, RKO (18 h); mean ± SD
MEASURED_ENDPOINT: Dmax

smiles_repr=Cc1ncsc1-c1ccc([C@H](CCCCCN2CCC(c3ccc4c(c3)n(C3CCCC3)c3nc(=O)c5c(Br)cccc5n43)CC2)NC(=O)[C@@H]2C[C@@H](O)CN2C(=O)[C@@H](NC(=O)C2(F)CC2)C(C)(C)C)cc1 measured_endpoint=Dmax data_value=78%
smiles_repr=CN1CCC(c2ccc3c(c2)n(C2CCCC2)c2nc(=O)c4c(Br)cccc4n32)CC1 measured_endpoint=Dmax data_value=82%

We next turn to a different molecule, shown below.
Inquiry: Recorded Dmax for Cc1ncsc1-c1ccc([C@H](COCCN2CCC(c3ccc4c(c3)n(C3CCCC3)c3nc(=O)c5c(Br)cccc5n43)CC2)NC(=O)[C@@H]2C[C@@H](O)CN2C(=O)[C@@H](NC(=O)C2(N(C)C)CC2)C(C)(C)C)cc1 , please?
Reply text: 82%

----------
ASSAY: Microsomal stability
Assay type: in vitro ADME
MEASUREMENT_SETUP: human liver microsomes
# Mic. Stab. Human QH values compiled below

The cases that follow already have their Mic. Stab. Human QH on record.
compound="CN1CCC(c2ccc3c(c2)n(C2CCCC2)c2nc(=O)c4c(Br)cccc4n32)CC1 [compound 3]" measured_endpoint="Mic. Stab. Human QH" data_value=<24.400%
compound="O=c1nc2n(C3CCCC3)c3cc(C4CCNCC4)ccc3n2c2cccc(Br)c12 [compound 4]" measured_endpoint="Mic. Stab. Human QH" data_value=<24.400%

We next turn to a different compound, shown below.
Inquiry: Recorded Mic. Stab. Human QH for Cc1ncsc1-c1ccc([C@H](CCCCCN2CCC(c3ccc4c(c3)n(C3CCCC3)c3nc(=O)c5c(Br)cccc5n43)CC2)NC(=O)[C@@H]2C[C@@H](O)CN2C(=O)[C@@H](NC(=O)C2(F)CC2)C(C)(C)C)cc1 [compound 11] , please?
Reply text: <24.400 <24.400 <24.400 <24.400%
